# Test system: MCF-7 (human adenocarcinoma)
# assayComment: Cytotoxicity assay (MTT, 48 h) on MCF-7
# Assay type: cell-based
# conditions: Homo sapiens, MCF7, 48 h, read-out: MCF-7, IC50
readoutType: IC50

Give the measured IC50 for O=C(c1cc(Cc2n[nH]c(=O)c3ccccc23)ccc1F)N1CCN(C(=O)C2CC2)CC1 [Olaparib, reference compound]
> 100 µM

###

# assayTarget: PARP1 (Homo sapiens, UniProt P09874)
# Sequence (P09874 whole entry, species assumed): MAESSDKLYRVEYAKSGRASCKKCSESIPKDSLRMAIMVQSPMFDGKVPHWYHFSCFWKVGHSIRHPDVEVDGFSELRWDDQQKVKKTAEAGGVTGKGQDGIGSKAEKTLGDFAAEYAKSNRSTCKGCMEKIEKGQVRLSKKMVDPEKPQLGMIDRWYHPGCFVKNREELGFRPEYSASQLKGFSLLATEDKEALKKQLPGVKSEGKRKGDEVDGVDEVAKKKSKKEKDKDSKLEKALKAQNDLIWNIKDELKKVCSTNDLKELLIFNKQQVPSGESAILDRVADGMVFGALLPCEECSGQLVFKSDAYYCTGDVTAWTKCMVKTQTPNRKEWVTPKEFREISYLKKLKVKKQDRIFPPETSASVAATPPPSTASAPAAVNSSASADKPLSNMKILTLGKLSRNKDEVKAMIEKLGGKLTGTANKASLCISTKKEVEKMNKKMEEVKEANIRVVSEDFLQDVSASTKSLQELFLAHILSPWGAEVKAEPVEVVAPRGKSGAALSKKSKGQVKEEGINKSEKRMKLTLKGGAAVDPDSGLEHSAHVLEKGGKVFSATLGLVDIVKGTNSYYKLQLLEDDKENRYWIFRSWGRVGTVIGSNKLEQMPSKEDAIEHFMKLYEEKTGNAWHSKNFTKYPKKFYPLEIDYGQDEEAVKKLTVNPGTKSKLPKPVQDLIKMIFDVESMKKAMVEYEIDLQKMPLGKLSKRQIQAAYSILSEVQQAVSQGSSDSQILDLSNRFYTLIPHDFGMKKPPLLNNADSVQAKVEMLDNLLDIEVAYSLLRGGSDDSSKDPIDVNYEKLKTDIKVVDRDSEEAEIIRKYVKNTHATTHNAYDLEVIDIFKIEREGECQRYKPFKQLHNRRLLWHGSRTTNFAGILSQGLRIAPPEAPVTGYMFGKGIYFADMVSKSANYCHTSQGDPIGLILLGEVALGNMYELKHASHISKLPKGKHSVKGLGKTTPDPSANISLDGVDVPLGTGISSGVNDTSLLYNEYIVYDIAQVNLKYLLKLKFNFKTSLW
# assayComment: PARP1 inhibition activity
# Assay type: biochemical
# conditions: PARP1 inhibiting activity, Table 1; read-out: PARP1
readoutType: pIC50
pIC50 (log units): -log10 of the concentration in mol/L.

Guide cases for pIC50, answers given:
{"smiles": "Cn1c(=O)c2c(Br)c(CN3CCCN(C(=O)CCCCCCCCC(=O)N4CCN(C(=O)c5cc(Cc6n[nH]c(=O)c7ccccc67)ccc5F)CC4)CC3)[se]c2c2ccccc21", "pIC50": 7.89}
{"smiles": "Cn1c(=O)c2c(Br)c(CN3CCCN(C(=O)CCC(=O)N4CCN(C(=O)c5cc(Cc6n[nH]c(=O)c7ccccc67)ccc5F)CC4)CC3)[se]c2c2ccccc21", "pIC50": 8.34}

Next compound, please.
Give the measured pIC50 for Cn1c(=O)c2c(Br)c(CN3CCCN(C(=O)CCCCCCCCCCC(=O)N4CCN(C(=O)c5cc(Cc6n[nH]c(=O)c7ccccc67)ccc5F)CC4)CC3)[se]c2c2ccccc21
6.83

###

# Test system: HCC1937 (human breast carcinoma)
# assayComment: Cytotoxicity assay (MTT, 48 h) on HCC1937
# Assay type: cell-based
# conditions: Homo sapiens, HCC1937, 48 h, read-out: HCC1937, IC50
readoutType: IC50

Give the measured IC50 for O=C(c1cc(Cc2n[nH]c(=O)c3ccccc23)ccc1F)N1CCN(C(=O)C2CC2)CC1 [Olaparib, reference compound]
> 100 µM
